Readings of Max for the listed binders
- Target Under Test: T1, Human B7-H4-Fc (Human B7H4 ECD, Fc_6His) (human)
- T1 construct: also called FcHis6 tagged human B7-H4
- T1 sequence (Q7Z7D3 whole entry, looked up): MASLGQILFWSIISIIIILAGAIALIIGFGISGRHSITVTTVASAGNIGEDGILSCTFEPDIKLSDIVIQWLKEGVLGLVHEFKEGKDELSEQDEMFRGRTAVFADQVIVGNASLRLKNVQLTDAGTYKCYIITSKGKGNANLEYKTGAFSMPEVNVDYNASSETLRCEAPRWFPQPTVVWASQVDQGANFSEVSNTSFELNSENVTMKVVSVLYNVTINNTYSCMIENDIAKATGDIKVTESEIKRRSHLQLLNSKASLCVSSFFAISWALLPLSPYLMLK
- Run Description: HTRF binding, human IgG1-TM
Outcome Measure: Max

INSERT INTO measurements (binder, result) VALUES
  ('ZY0EOB-F05 human IgG1-TM (antibody, V domains shown) VH: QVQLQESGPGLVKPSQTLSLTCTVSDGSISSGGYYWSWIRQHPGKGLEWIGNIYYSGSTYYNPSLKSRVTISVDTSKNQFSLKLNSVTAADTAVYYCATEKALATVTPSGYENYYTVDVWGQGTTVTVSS VL: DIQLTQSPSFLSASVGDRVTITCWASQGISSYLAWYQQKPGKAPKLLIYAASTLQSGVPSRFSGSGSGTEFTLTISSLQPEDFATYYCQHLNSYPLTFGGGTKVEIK', 1870),
  ('ZY0EP0-C07 human IgG1-TM (antibody, V domains shown, also called ZY0EPO-C07) VH: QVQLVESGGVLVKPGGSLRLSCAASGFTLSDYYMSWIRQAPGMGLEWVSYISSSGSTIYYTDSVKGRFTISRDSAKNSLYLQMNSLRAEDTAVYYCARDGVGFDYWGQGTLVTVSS VL: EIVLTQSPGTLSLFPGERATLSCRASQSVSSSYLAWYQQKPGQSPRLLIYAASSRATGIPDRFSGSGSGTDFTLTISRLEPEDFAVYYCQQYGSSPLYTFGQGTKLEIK', 1210),
  ('ZY0EQD-E02 human IgG1-TM (antibody, V domains shown) VH: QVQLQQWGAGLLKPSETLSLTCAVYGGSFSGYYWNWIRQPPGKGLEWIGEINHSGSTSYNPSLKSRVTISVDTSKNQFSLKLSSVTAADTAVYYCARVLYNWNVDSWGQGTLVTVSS VL: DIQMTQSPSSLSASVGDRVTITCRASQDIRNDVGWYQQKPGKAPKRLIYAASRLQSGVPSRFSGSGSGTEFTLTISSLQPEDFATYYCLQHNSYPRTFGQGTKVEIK', 1270),
  ('ZY0EPQ-E02 human IgG1-TM (antibody, V domains shown) VH: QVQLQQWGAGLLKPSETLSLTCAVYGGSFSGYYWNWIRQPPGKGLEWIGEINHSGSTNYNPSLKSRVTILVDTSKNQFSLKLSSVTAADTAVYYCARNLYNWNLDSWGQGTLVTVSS VL: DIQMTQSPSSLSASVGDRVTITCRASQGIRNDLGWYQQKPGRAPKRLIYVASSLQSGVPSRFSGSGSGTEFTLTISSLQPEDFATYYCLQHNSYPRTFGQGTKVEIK', 1090);

Source of measurements: patent US20240239894A1
